target: fusion protein PRA
Sequence (chain, as listed by the source): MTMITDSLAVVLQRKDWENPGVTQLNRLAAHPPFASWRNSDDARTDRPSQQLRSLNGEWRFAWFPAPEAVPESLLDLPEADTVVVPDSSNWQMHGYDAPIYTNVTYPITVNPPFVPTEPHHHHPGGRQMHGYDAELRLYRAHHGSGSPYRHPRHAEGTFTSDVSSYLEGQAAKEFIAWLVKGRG
measurement.type: relative cleavage efficiency

{"protein": "OmpT protease variant OmpT D97I (protein) STETLSFTPDNINADISLGTLSGKTKERVYLAEEGGRKVSQLDWKFNNAAIIKGAINWDLMPQISIGAAGWTTLGSRGGNMVDQDWMDSSNPGTWTIESRHPDTQLNYANEFDLNIKGWLLNEPNYRLGLMAGYQESRYSFTARGGSYIYSSEEGFRDDIGSFPNGERAIGYKQRFKMPYIGLTGSYRYEDFELGGTFKYSGWVESSDNDEHYDPGKRITYRSKVKDQNYYSVAVNAGYYVTPNAKVYVEGAWNRVTNKKGNTSLYDHNNNTSDYSKNGAGIENYNFITTAGLKYTF", "observed.measurement": "less than 3.0%"}
{"protein": "OmpT protease variant OmpT D97E (protein) STETLSFTPDNINADISLGTLSGKTKERVYLAEEGGRKVSQLDWKFNNAAIIKGAINWDLMPQISIGAAGWTTLGSRGGNMVDQDWMDSSNPGTWTEESRHPDTQLNYANEFDLNIKGWLLNEPNYRLGLMAGYQESRYSFTARGGSYIYSSEEGFRDDIGSFPNGERAIGYKQRFKMPYIGLTGSYRYEDFELGGTFKYSGWVESSDNDEHYDPGKRITYRSKVKDQNYYSVAVNAGYYVTPNAKVYVEGAWNRVTNKKGNTSLYDHNNNTSDYSKNGAGIENYNFITTAGLKYTF", "observed.measurement": "6.5%"}
{"protein": "OmpT protease variant OmpT D97T (protein) STETLSFTPDNINADISLGTLSGKTKERVYLAEEGGRKVSQLDWKFNNAAIIKGAINWDLMPQISIGAAGWTTLGSRGGNMVDQDWMDSSNPGTWTTESRHPDTQLNYANEFDLNIKGWLLNEPNYRLGLMAGYQESRYSFTARGGSYIYSSEEGFRDDIGSFPNGERAIGYKQRFKMPYIGLTGSYRYEDFELGGTFKYSGWVESSDNDEHYDPGKRITYRSKVKDQNYYSVAVNAGYYVTPNAKVYVEGAWNRVTNKKGNTSLYDHNNNTSDYSKNGAGIENYNFITTAGLKYTF", "observed.measurement": "6.8%"}
{"protein": "OmpT protease variant OmpT D97P (protein) STETLSFTPDNINADISLGTLSGKTKERVYLAEEGGRKVSQLDWKFNNAAIIKGAINWDLMPQISIGAAGWTTLGSRGGNMVDQDWMDSSNPGTWTPESRHPDTQLNYANEFDLNIKGWLLNEPNYRLGLMAGYQESRYSFTARGGSYIYSSEEGFRDDIGSFPNGERAIGYKQRFKMPYIGLTGSYRYEDFELGGTFKYSGWVESSDNDEHYDPGKRITYRSKVKDQNYYSVAVNAGYYVTPNAKVYVEGAWNRVTNKKGNTSLYDHNNNTSDYSKNGAGIENYNFITTAGLKYTF", "observed.measurement": "less than 3.0%"}
{"protein": "OmpT protease variant OmpT D97W (protein) STETLSFTPDNINADISLGTLSGKTKERVYLAEEGGRKVSQLDWKFNNAAIIKGAINWDLMPQISIGAAGWTTLGSRGGNMVDQDWMDSSNPGTWTWESRHPDTQLNYANEFDLNIKGWLLNEPNYRLGLMAGYQESRYSFTARGGSYIYSSEEGFRDDIGSFPNGERAIGYKQRFKMPYIGLTGSYRYEDFELGGTFKYSGWVESSDNDEHYDPGKRITYRSKVKDQNYYSVAVNAGYYVTPNAKVYVEGAWNRVTNKKGNTSLYDHNNNTSDYSKNGAGIENYNFITTAGLKYTF", "observed.measurement": "less than 3.0%"}
